# System: PPARγ
# Protocol Text: PPARγ mRNA expression in adipocytes (real-time PCR)
# Format: cell-based, human
# Condition Parameters: Table 18; differentiating adipocytes; control = treatment with ISIS 342673
In the oligonucleotide strings, read from the 5' end, every base follows the letter of its sugar. An asterisk marks phosphorothioate; unmarked linkages are phosphodiester. Other units and linkages are bracketed, terminal groups are in braces. A string of capitals states the bases alone. e = 2'-O-(2-methoxyethyl) (MOE); [5mC] = 5-methylcytosine
Reported PPAR gamma mRNA is given for each of the following substances.

Data request, read-out PPAR gamma mRNA, for 341805 (antisense ACCCTTATCAGTTCTCCGTCCA; all 2'-MOE, all phosphorothioate, methylation of C not given here) [compound 341805] 80.4 percentage of control

Try the substance 328100 (antisense eA*eA*eT*e[5mC]*eT*e[5mC]*eT*eG*e[5mC]*eA*eG*eG*e[5mC]*eA*eA*eA*eT*eG*eT*eG*eA) [compound 328100] 66.7 percentage of control

Try the substance 328101 (antisense eA*eA*eA*e[5mC]*e[5mC]*e[5mC]*e[5mC]*eT*eA*eT*e[5mC]*eA*e[5mC]*eG*eA*eT*eT*eA*eG*e[5mC]*eA) [compound 328101] 79.3 percentage of control

Try the substance 328114 (antisense eA*eA*eT*e[5mC]*eT*e[5mC]*eA*eT*eT*eT*eT*e[5mC]*eA*eT*eA*e[5mC]*eT*eT*eG*e[5mC]*eA) [compound 328114] 89.3 percentage of control

Try the substance 328103 (antisense e[5mC]*e[5mC]*e[5mC]*eA*eA*eT*eA*eT*e[5mC]*eA*eA*eA*e[5mC]*eA*eT*eA*eT*e[5mC]*eA) [compound 328103] 74.3 percentage of control

Try the substance 341803 (antisense CCACACACTTCCTTACATTCCA; all 2'-MOE, all phosphorothioate, methylation of C not given here) [compound 341803] 71.2 percentage of control

Try the substance 327969 (antisense eT*eG*eT*eG*eA*eG*eT*eT*e[5mC]*eT*eA*e[5mC]*e[5mC]*eA*eT*eT*eG*e[5mC]*e[5mC]*eA*eA*eA) [compound 327969] 69.2 percentage of control

Try the substance 328110 (antisense eG*eA*eT*eA*eA*eA*eG*e[5mC]*e[5mC]*eA*eA*eT*eA*eA*eA*e[5mC]*eT*eG*eT*e[5mC]*eA) [compound 328110] 91.2 percentage of control

Try the substance 342673 (antisense eA*eG*eA*e[5mC]*eT*eA*eG*e[5mC]*eG*eG*eT*eA*eT*e[5mC]*eT*eT*eT*eA*eT*e[5mC]*e[5mC]*e[5mC]) [compound 342673] 100 percentage of control

Try the substance 327912 (antisense eA*eA*e[5mC]*eT*eA*eT*eA*e[5mC]*eA*eA*eT*e[5mC]*eT*eA*e[5mC]*eT*eA*e[5mC]*e[5mC]*eT*e[5mC]*eA) [compound 327912] 76.9 percentage of control

Try the substance 328113 (antisense e[5mC]*eA*eA*eA*eA*eA*eT*eT*eA*eT*e[5mC]*eA*eG*e[5mC]*e[5mC]*eA*eG*eT*eT*eT*eA) [compound 328113] 93.8 percentage of control
